# target.of.assay: T1, CBP TAZ2 (mouse, UniProt P45481 1764-1855)
# T1 chain: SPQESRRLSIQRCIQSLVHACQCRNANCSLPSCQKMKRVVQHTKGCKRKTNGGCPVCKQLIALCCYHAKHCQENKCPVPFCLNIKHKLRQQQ
# test: ITC; two-site model, second site
measured.metric: Kd (µM)

>  <binder>
mouse Aire CTT (aa 480-552) (domain or fragment, UniProt Q9Z0E3 480-552, looked up, Aire (autoimmune regulator), mouse, C-terminal tail (CTT), residues 480-552; Used in NMR (15N13C-labelled) and ITC; whether tags were left on it is told only in the Supplementary Note; also called isolated CTT; source: E. coli, purified (details in the Supplementary Note)) TPTPGTPGEAVPTSGPRPAPGLAKVGDDSASHDPVLHRDDLESLLNEHSFDGILQWAIQSMSRPLAETPPFSS

>  <observed.result>
39.7

$$$$

Data origin, for the record: paper PMC11362013
